Target: OsSMF1 (Oryza sativa, UniProt Q6ZLB0 1-436)
Sequence: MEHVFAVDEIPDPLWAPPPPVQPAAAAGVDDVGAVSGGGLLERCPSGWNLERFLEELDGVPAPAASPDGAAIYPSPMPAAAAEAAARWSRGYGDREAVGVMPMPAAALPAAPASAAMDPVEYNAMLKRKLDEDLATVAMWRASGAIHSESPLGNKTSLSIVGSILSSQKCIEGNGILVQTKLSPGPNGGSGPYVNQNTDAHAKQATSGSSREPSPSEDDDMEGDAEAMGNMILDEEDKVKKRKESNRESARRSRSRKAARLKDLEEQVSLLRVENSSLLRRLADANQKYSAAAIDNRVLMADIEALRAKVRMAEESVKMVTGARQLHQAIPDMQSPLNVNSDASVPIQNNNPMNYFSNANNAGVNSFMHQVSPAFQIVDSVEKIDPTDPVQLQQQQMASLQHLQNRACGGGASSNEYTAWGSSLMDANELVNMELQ
Assay: protein-binding microarray (RPBM); PBS, 2% BSA, 51.3 ng/ul salmon testes DNA, 50 uM zinc acetate, 200 nM TF, 25 C, 1 h; high values mean tight binding
Conditions: protein: recombinant; tags: N-terminal polyhistidine and DsRed monomer fusion (pET32a); chain copies: 2; label: CyDye5-dUTP incorporated in the synthesized complementary strand; 3' TTTTT single-stranded linker to array surface; dsDNA, one strand shown
Whole data set: some 39,000 sequences, median “fluorescence intensity (a.u.)” near 4,300, cut for the highest 2% near 39,000. For the sample, the highest values were picked, then their nearest neighbours and some sequences at random.
Measurement Label: binding signal

>>> data_value("CATATCCTCAAGTAGAATTCAAATCCAGTCACATTGCCACCGGAGTCACCTAGTGCAG")
"4130 fluorescence intensity (a.u.)"
>>> data_value("TCACGCGTAGCTTCGCCGCTACGTGGCCTCGCGCACGTTACGGAGTCACCTAGTGCAG")
"5500 fluorescence intensity (a.u.)"
>>> data_value("TGCAGTATCTGCCGTTCGTATCGCTGCGTTGAATCTTCCACGGAGTCACCTAGTGCAG")
"47100 fluorescence intensity (a.u.)"
>>> data_value("GTTCGCGGGCCGCGAACGTCCACGTACTAGACGCCCCTCACGGAGTCACCTAGTGCAG")
"4050 fluorescence intensity (a.u.)"
>>> data_value("CTAGTTCGCCTTCCACGTACGCACTTGGCGTCGTATCTGCCGGAGTCACCTAGTGCAG")
"6440 fluorescence intensity (a.u.)"
>>> data_value("GCACAGGCTTGACACCAGTCGAGCCGAGCCGAAACCCCGTCGGAGTCACCTAGTGCAG")
"3270 fluorescence intensity (a.u.)"
>>> data_value("GCAATGCATTTCAAATTCAGGACCCCATAGAGAAATCAACCGGAGTCACCTAGTGCAG")
"29200 fluorescence intensity (a.u.)"
>>> data_value("CCGCACGCGCTCCCTTCACCCACCTCGATCGAGCTCCATGCGGAGTCACCTAGTGCAG")
"3570 fluorescence intensity (a.u.)"
>>> data_value("ACGCCTCATCTCCAGTCCACGGCTCAACGTCCACGCACACCGGAGTCACCTAGTGCAG")
"3490 fluorescence intensity (a.u.)"

====

Molecular target: OsSMF1 (Oryza sativa, UniProt Q6ZLB0 1-436)
Sequence: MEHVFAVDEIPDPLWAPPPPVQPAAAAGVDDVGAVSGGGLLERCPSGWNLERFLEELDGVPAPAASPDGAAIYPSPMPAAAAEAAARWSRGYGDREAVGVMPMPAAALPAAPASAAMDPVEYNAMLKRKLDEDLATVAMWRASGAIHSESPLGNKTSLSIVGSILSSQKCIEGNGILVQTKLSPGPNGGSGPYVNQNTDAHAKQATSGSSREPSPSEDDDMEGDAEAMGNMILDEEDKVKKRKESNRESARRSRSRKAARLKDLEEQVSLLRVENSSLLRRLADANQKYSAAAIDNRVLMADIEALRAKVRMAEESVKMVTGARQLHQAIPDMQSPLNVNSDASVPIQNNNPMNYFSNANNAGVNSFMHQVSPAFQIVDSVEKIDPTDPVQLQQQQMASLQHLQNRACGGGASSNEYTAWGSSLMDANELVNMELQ
Test: protein-binding microarray (RPBM); PBS, 2% BSA, 51.3 ng/ul salmon testes DNA, 50 uM zinc acetate, 200 nM TF, 25 C, 1 h; high values mean tight binding
Conditions: protein: recombinant; tags: N-terminal polyhistidine and DsRed monomer fusion (pET32a); chain copies: 2; label: CyDye5-dUTP incorporated in the synthesized complementary strand; 3' TTTTT single-stranded linker to array surface; dsDNA, one strand shown
The full ranking holds about 39,000 sequences; the median of “fluorescence intensity (a.u.)” is about 4,300, and the highest 2% start at about 39,000. What follows is part of a selection rich in the highest values, with near analogues and random picks from the rest.
This section presents sequences with their documented binding signal values.
Measurement Label: binding signal

>>> data_value("AACCACGTATGCGCCACGTCATCCAAAACCGCCTTCAAAACGGAGTCACCTAGTGCAG")
"14400 fluorescence intensity (a.u.)"
>>> data_value("ACGACGACGACGTCGACGTGTGAACCAGTCAACTGCCACGCGGAGTCACCTAGTGCAG")
"8590 fluorescence intensity (a.u.)"
>>> data_value("AAATAATGTGGCCGGACGGGCGGTAGGGTCCTGGCAGCAGCGGAGTCACCTAGTGCAG")
"28000 fluorescence intensity (a.u.)"
>>> data_value("ATCTCCATCGCTGGCGACGGCGAGCATCGCATCGCATCGCCGGAGTCACCTAGTGCAG")
"3150 fluorescence intensity (a.u.)"
>>> data_value("AGCACCACGGTCAATGCCACGTATGTGCCACGTCATCCAACGGAGTCACCTAGTGCAG")
"46600 fluorescence intensity (a.u.)"
>>> data_value("AGATCCCGAATTCGTGCCACGTGATCTGCCGTCGTGTATTCGGAGTCACCTAGTGCAG")
"6050 fluorescence intensity (a.u.)"
>>> data_value("CCTCTGGCATCCATTATTGAGTTTATTAATCCTCCATCCTCGGAGTCACCTAGTGCAG")
"26300 fluorescence intensity (a.u.)"
>>> data_value("GGGCCCCACAACCACCCCATAAATAAAGCAACACAACAACCGGAGTCACCTAGTGCAG")
"53000 fluorescence intensity (a.u.)"
>>> data_value("CTCGTGGGGACGACGCTGGTGTCCGTGTACTGCAAGTGCGCGGAGTCACCTAGTGCAG")
"4060 fluorescence intensity (a.u.)"

====

Target: OsSMF1 (Oryza sativa, UniProt Q6ZLB0 1-436)
Sequence: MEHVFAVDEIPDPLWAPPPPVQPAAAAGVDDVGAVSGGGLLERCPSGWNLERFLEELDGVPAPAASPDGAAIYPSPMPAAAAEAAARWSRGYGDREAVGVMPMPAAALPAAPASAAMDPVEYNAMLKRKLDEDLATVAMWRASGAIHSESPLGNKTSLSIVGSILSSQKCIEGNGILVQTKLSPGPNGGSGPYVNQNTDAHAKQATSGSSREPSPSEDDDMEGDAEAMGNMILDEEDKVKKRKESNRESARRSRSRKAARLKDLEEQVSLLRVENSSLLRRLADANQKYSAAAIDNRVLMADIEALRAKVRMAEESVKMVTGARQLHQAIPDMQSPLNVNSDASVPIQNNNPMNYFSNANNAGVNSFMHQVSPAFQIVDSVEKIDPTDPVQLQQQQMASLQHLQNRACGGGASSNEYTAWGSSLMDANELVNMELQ
Assay: protein-binding microarray (RPBM); PBS, 2% BSA, 51.3 ng/ul salmon testes DNA, 50 uM zinc acetate, 200 nM TF, 25 C, 1 h; high values mean tight binding
Details: protein: recombinant; tags: N-terminal polyhistidine and DsRed monomer fusion (pET32a); chain copies: 2; label: CyDye5-dUTP incorporated in the synthesized complementary strand; 3' TTTTT single-stranded linker to array surface; dsDNA, one strand shown
Whole data set: some 39,000 sequences, median “fluorescence intensity (a.u.)” near 4,300, cut for the highest 2% near 39,000. The sample as a whole holds a higher share of the highest values than the screen did.
Measurement Label: binding signal

>>> data_value("GAAATCTGAACAACCAAGTTACTACTGTACTTATGTTAGTCGGAGTCACCTAGTGCAG")
"20700 fluorescence intensity (a.u.)"
>>> data_value("TGGTACATGGTGTGCCCTACCGAGCTTAGTCAACCACTTTCGGAGTCACCTAGTGCAG")
"3230 fluorescence intensity (a.u.)"
>>> data_value("TGTGCCCTCTCCGTTCGATCCAGGAAAATGATAGTGTGATCGGAGTCACCTAGTGCAG")
"50200 fluorescence intensity (a.u.)"
>>> data_value("TTTCGGTCATGAAAACTCAGGACCAAATTTCATCCAAATACGGAGTCACCTAGTGCAG")
"29300 fluorescence intensity (a.u.)"
>>> data_value("TACCTTACCTGTACGGCAGGCATGCATGTTACTCCAGTAGCGGAGTCACCTAGTGCAG")
"39800 fluorescence intensity (a.u.)"
>>> data_value("AAACGATAATATACCTTGTATAGTCATCCAACTCTTATTTCGGAGTCACCTAGTGCAG")
"3630 fluorescence intensity (a.u.)"
>>> data_value("CTCTGTGCTGAAATGGTTAGGTATGTTTTCTTTCTGCTCTCGGAGTCACCTAGTGCAG")
"40700 fluorescence intensity (a.u.)"
>>> data_value("AGCTCAGCTGTCACGGTGTCACCTGTCAGCGCCCACAACTCGGAGTCACCTAGTGCAG")
"6140 fluorescence intensity (a.u.)"
>>> data_value("CAATTCTACAATATGCCACTGAGTTTACCAAGTTATACAACGGAGTCACCTAGTGCAG")
"4020 fluorescence intensity (a.u.)"
>>> data_value("ACGAGCCCACGAGGTTGATGACGACGAAGCCGAAGAGTTGCGGAGTCACCTAGTGCAG")
"4660 fluorescence intensity (a.u.)"
>>> data_value("TACTTCTACCTACCTTACCAAGTCCTGACAGTTACAACGTCGGAGTCACCTAGTGCAG")
"55400 fluorescence intensity (a.u.)"
>>> data_value("AATCTGCACCGGTTTTGATAGTTAAGGGACTAATTGTATCCGGAGTCACCTAGTGCAG")
"41700 fluorescence intensity (a.u.)"
>>> data_value("TATCCAAAATTTCATCCAACTCTTGTGGGAGAAACGGACACGGAGTCACCTAGTGCAG")
"39500 fluorescence intensity (a.u.)"
>>> data_value("TTCGTGTGCCTAGGAAAATGGTATCCAAACCCCTCAAAATCGGAGTCACCTAGTGCAG")
"4190 fluorescence intensity (a.u.)"
>>> data_value("ATTAGATTTACCGCAAACAATGACGTCCTCCCTGCCTGGACGGAGTCACCTAGTGCAG")
"4900 fluorescence intensity (a.u.)"
>>> data_value("GTCAGTCACCGCCCTGTGGGGCCCACCCACCCGCGCCGTCCGGAGTCACCTAGTGCAG")
"9640 fluorescence intensity (a.u.)"
>>> data_value("GAGCAGCCAGCTCGCCAAGCCTAGCCATTCTTGATCTCTTCGGAGTCACCTAGTGCAG")
"3280 fluorescence intensity (a.u.)"
>>> data_value("CGGAGGGATTCGATTTGGAAGGAATTGGATTCGGAGTTGACGGAGTCACCTAGTGCAG")
"33200 fluorescence intensity (a.u.)"
>>> data_value("TCCCGTCTCGGCTCCTTGCGCCATCGTCGACAGGGGAGGGCGGAGTCACCTAGTGCAG")
"3540 fluorescence intensity (a.u.)"
>>> data_value("TCTTTCGTCGCAATGCCACGCCATCATCGATCCCTTTCCTCGGAGTCACCTAGTGCAG")
"14800 fluorescence intensity (a.u.)"
>>> data_value("GAGAAATGACGACACATCCTCTCGAGTGATCAGGATCCGTCGGAGTCACCTAGTGCAG")
"3590 fluorescence intensity (a.u.)"
>>> data_value("GCATAGGAAGGTGACATGGCATATCCATGTGGCGATTTTGCGGAGTCACCTAGTGCAG")
"7280 fluorescence intensity (a.u.)"
>>> data_value("CGTCCGGCGTCGGCGTGGACGGGTCGGCGCGGCGCCCCACCGGAGTCACCTAGTGCAG")
"3650 fluorescence intensity (a.u.)"
>>> data_value("TTTAGTGGCAGTCTTATAATAACGATTCAAAATAGTGGCACGGAGTCACCTAGTGCAG")
"3190 fluorescence intensity (a.u.)"
>>> data_value("CACGTGGGACGAAAACTAGGTCAACATCGCCACGTCAGCGCGGAGTCACCTAGTGCAG")
"45900 fluorescence intensity (a.u.)"
>>> data_value("TTGCCGTATCGGCTCGCCTGAAAGCGTGTCATTAGCATGACGGAGTCACCTAGTGCAG")
"3950 fluorescence intensity (a.u.)"
>>> data_value("TCGAGCCGGTAGATGTCTCAGCTAGTGCTTTATCTGTTCGCGGAGTCACCTAGTGCAG")
"3180 fluorescence intensity (a.u.)"
>>> data_value("CCAGGTCAACATTGCCACGTGTGCGGCCACGTCAGCGAAACGGAGTCACCTAGTGCAG")
"33400 fluorescence intensity (a.u.)"
>>> data_value("GAAGGAATTGGATTGAATCAGAAAGGGGATCGATTCGATGCGGAGTCACCTAGTGCAG")
"45200 fluorescence intensity (a.u.)"
>>> data_value("CTAGGTCAACACCGCCATGTCAGCGCCACGTCAGCGAAACCGGAGTCACCTAGTGCAG")
"28700 fluorescence intensity (a.u.)"
>>> data_value("ACAGTACTTGGCTGTAGCGGGCATCTTGTCCTGGCATGTGCGGAGTCACCTAGTGCAG")
"3600 fluorescence intensity (a.u.)"
>>> data_value("GCACCGGTTTTGATAGTTGAGGGACTTGTTGTATCTGGTTCGGAGTCACCTAGTGCAG")
"29200 fluorescence intensity (a.u.)"
>>> data_value("GTATCCATATATCCGATATGACACGCCAAAACTTTACACCCGGAGTCACCTAGTGCAG")
"4870 fluorescence intensity (a.u.)"
>>> data_value("GCTGCTCTCTTTCCTCTCTTCTCTCTCTGTTTTCTCTCCTCGGAGTCACCTAGTGCAG")
"18500 fluorescence intensity (a.u.)"
>>> data_value("TTAGCTGGGATGAATTGGGAATGGCTGATGATTCATTGCTCGGAGTCACCTAGTGCAG")
"3790 fluorescence intensity (a.u.)"
>>> data_value("AATTTGGATTTGAATTATATCTGATTCAAATTTGAATTTGCGGAGTCACCTAGTGCAG")
"3270 fluorescence intensity (a.u.)"
>>> data_value("ATTCTTGCTACCTATAATTGCAACATGACAGAGTGTTAAGCGGAGTCACCTAGTGCAG")
"3480 fluorescence intensity (a.u.)"

meta.source: paper PMC7819943
